target_of_assay: Polyunsaturated fatty acid lipoxygenase ALOX12 (Homo sapiens) (UniProt P18054)
Sequence (P18054 whole entry, looked up): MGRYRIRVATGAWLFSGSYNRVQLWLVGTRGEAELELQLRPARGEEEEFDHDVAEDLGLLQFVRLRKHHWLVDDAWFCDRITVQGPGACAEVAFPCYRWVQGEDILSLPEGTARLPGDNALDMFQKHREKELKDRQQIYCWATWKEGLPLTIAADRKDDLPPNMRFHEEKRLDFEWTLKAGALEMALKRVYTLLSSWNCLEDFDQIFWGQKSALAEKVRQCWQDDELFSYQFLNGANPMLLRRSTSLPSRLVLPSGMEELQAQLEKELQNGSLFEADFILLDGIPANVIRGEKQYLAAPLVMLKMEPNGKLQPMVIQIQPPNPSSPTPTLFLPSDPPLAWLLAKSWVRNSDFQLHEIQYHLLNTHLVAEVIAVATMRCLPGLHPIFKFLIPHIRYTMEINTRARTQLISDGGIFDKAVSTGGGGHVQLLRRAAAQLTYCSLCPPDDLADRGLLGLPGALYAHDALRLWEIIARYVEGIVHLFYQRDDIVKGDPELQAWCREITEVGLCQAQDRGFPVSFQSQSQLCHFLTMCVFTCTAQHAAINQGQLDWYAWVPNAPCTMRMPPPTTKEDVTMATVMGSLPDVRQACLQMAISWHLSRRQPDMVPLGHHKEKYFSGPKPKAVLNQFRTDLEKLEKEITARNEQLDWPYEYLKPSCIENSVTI
protocol_description: Primary qHTS assay for inhibitors of human arachidonate 12S-lipoxygenase (ALOX12): Round 2; note: potency is the fitted concentration of half-maximal effect
condition_notes: purified 12hLO, xylenol orange hydroperoxide absorbance; series mostly up to 108 µM
In all, about 580,000 compounds went through this assay and about 6,100 (1.1%) were called active. Another 15% or so got no clear call; they are omitted. For the sample, actives were picked, then their nearest neighbours and some compounds at random.
outcome_measure: Potency

The examples below pair each entry with its known result.
>  <compound>
CC1(C)Cc2ccccc2-c2nnc(-c3cccc(O)c3)n21

>  <Potency>
inactive

$$$$
>  <compound>
C=CCc1ccc(OCC(O)CN2CCN(Cc3ccccc3)CC2)c(OC)c1 (stereo unspecified)

>  <Potency>
inactive

$$$$
>  <compound>
CC(C)CC(N=C1NC(C)(C)Cc2ccccc21)C(=O)O (stereo unspecified)

>  <Potency>
inactive

$$$$
>  <compound>
Cc1c(Cl)cccc1NC(=O)COC(=O)c1nn(C)c(=O)c2ccccc12

>  <Potency>
inactive

$$$$

Form field Potency, entry `COc1ccc(CN2CCN(Cc3cccnc3)CC2)cc1OCc1ccccc1` : 0.708 µM (active)

So, `C/C(=N\NC(N)=S)c1cc(C(C)(C)C)cc2c1CCC2(C)C` ? Its Potency was 31.6 µM (active)

Potency for `CN(CC(=O)Nc1cc(Cl)ccc1F)Cc1ccccc1N1CCCCC1` is inactive

The compound listed as CCCNC(=O)CC1COCCN1C(=O)CCc1c(C)nc(=O)[nH]c1C (stereo unspecified) shows Potency equal to inactive

Lab note: measured Potency of `Cc1cccc(C(=O)Nc2cccc(-c3nn4c(C)nnc4s3)c2)c1` was inactive

For record `CNC(=O)C(C)(C)N1CCC[C@H]1C(=O)N(C)Cc1ccccc1` the listed Potency is inactive

For this compound ( `N#CC1CCN(C(=O)c2nc(-c3ccc(Cl)cc3)c3ccccn23)CC1` ), measured Potency is inactive

====

target_of_assay: Polyunsaturated fatty acid lipoxygenase ALOX12 (Homo sapiens)
protocol_description: Primary qHTS assay for inhibitors of human arachidonate 12S-lipoxygenase (ALOX12): Round 2
condition_notes: purified 12hLO, xylenol orange hydroperoxide absorbance; series mostly up to 108 µM
Screen size: about 580,000 compounds; about 6,100 (1.1%) were called active. Another 15% or so got no clear call; they are omitted. Calls follow the shape of the dose curve; as a rule, active = well fitted inhibition curve with a large enough effect; inconclusive = small, poorly fitted or top-dose-only effect, or another doubt; inactive = no such curve, though single readings can be large or run the other way. Many of the other results were omitted from the sample, so actives are more common in it than they were.
Respond only with the outcome that fits, drawn from active, inactive

>  <compound>
CCOC(=O)COc1ccc2c(=O)c(-c3ccc(OC)c(OC)c3)c(C)oc2c1

>  <answer_label>
inactive

$$$$

Here's the next entry for you.
Lookup: Lab log entry: CCC(C)NC(=S)Nc1ccc(C)cc1 (stereo not drawn) — outcome as called in the assay?
Found: inactive

====

target_of_assay: Polyunsaturated fatty acid lipoxygenase ALOX12 (Homo sapiens) (UniProt P18054)
protocol_description: Primary qHTS assay for inhibitors of human arachidonate 12S-lipoxygenase (ALOX12): Round 2
condition_notes: purified 12hLO, xylenol orange hydroperoxide absorbance; series mostly up to 108 µM
Out of some 580,000 compounds screened, about 6,100 (1.1%) were called active. Another 15% or so got no clear call; they are omitted. The call rests on the fitted dose curve; in most records, active means well fitted inhibition curve with a large enough effect; inconclusive means small, poorly fitted or top-dose-only effect, or another doubt; inactive means no such curve, though single readings can be large or run the other way. The full list was thinned out, with actives kept by preference.
# valid calls are active, inactive; nothing else

>  <compound>
CCNc1nc(C(F)(F)F)c(C(=O)OCC)s1

>  <target_of_assay>
Polyunsaturated fatty acid lipoxygenase ALOX12 (Homo sapiens) (UniProt P18054)

>  <answer_label>
inactive

$$$$
>  <compound>
O=C(NCCNC(=O)C1CC1)c1c[nH]c2ccccc12

>  <target_of_assay>
Polyunsaturated fatty acid lipoxygenase ALOX12 (Homo sapiens) (UniProt P18054)

>  <answer_label>
inactive

$$$$
>  <compound>
Cc1ccccc1-n1cnnc1SCC(=O)NC(C)c1cccc2ccccc12 (configuration not stated)

>  <target_of_assay>
Polyunsaturated fatty acid lipoxygenase ALOX12 (Homo sapiens) (UniProt P18054)

>  <answer_label>
inactive

$$$$
>  <compound>
Cc1c(Cl)cccc1NC(=O)[C@@]1(CC(=O)O)CC(/C=C/c2ccccc2)=NO1

>  <target_of_assay>
Polyunsaturated fatty acid lipoxygenase ALOX12 (Homo sapiens) (UniProt P18054)

>  <answer_label>
inactive

$$$$
>  <compound>
CCc1c(C)sc(NC(=O)C2c3ccccc3Oc3ccccc32)c1C(=O)OC(C)C

>  <target_of_assay>
Polyunsaturated fatty acid lipoxygenase ALOX12 (Homo sapiens) (UniProt P18054)

>  <answer_label>
inactive

$$$$
>  <compound>
CCOC(=O)N1CCN(C(=O)c2ccc(N3C(=O)CCS3(=O)=O)cc2)CC1

>  <target_of_assay>
Polyunsaturated fatty acid lipoxygenase ALOX12 (Homo sapiens) (UniProt P18054)

>  <answer_label>
inactive

$$$$
>  <compound>
O=C(OCc1cn([C@@H]2C[C@H](c3ccc(Cl)cc3)N(Cc3cccs3)C[C@H]2O)nn1)c1ccccc1

>  <target_of_assay>
Polyunsaturated fatty acid lipoxygenase ALOX12 (Homo sapiens) (UniProt P18054)

>  <answer_label>
inactive

$$$$
>  <compound>
COc1cccc(CN2C[C@@H](F)[C@@H](OCc3nc4ccccc4n3C)C2)n1

>  <target_of_assay>
Polyunsaturated fatty acid lipoxygenase ALOX12 (Homo sapiens) (UniProt P18054)

>  <answer_label>
inactive

$$$$

Lookup: # outcome recorded in this test, key = O=C(Nc1ccnc(Cl)c1)C1CC2CCC1C2 (configuration not stated)
Found: inactive

Lookup: Any idea what this test logged for `CCN(CC)C(=O)Oc1ccc2c(C)c(-c3ccc(OC)cc3)c(=O)oc2c1` ?
Found: inactive

====

target_of_assay: Polyunsaturated fatty acid lipoxygenase ALOX12 (Homo sapiens) (UniProt P18054)
protocol_description: Primary qHTS assay for inhibitors of human arachidonate 12S-lipoxygenase (ALOX12): Round 2
condition_notes: purified 12hLO, xylenol orange hydroperoxide absorbance; series mostly up to 108 µM
In all, about 580,000 compounds went through this assay and about 6,100 (1.1%) were called active. Another 15% or so got no clear call; they are omitted. Calls follow the shape of the dose curve; as a rule, active = well fitted inhibition curve with a large enough effect; inconclusive = small, poorly fitted or top-dose-only effect, or another doubt; inactive = no such curve, though single readings can be large or run the other way. For the sample, actives were picked, then their nearest neighbours and some compounds at random.
Log the outcome using a class from 1 (active), 0 (inactive)

>  <compound>
CCNc1ncc(CN2CCN(c3cccc(C(F)(F)F)c3)CC2)cn1

>  <answer_label>
0

$$$$

Lookup: Kindly provide the recorded test outcome for the following compound: `N#Cc1ccccc1COC(=O)c1ccc(Br)cc1`
Found: 0

====

target_of_assay: Polyunsaturated fatty acid lipoxygenase ALOX12 (Homo sapiens) (UniProt P18054)
protocol_description: Primary qHTS assay for inhibitors of human arachidonate 12S-lipoxygenase (ALOX12): Round 2
condition_notes: purified 12hLO, xylenol orange hydroperoxide absorbance; series mostly up to 108 µM
In all, about 580,000 compounds went through this assay and about 6,100 (1.1%) were called active. About 15% were inconclusive and are not listed. The call rests on the fitted dose curve; in most records, active means well fitted inhibition curve with a large enough effect; inconclusive means small, poorly fitted or top-dose-only effect, or another doubt; inactive means no such curve, though single readings can be large or run the other way. What follows is part of a selection rich in actives, with near analogues and random picks from the rest.
Assign a class; possible classes are t (active), f (inactive)

Study these solved cases before continuing.
>  <compound>
Cc1ccc(OCCC(=O)Nc2cc3c(cc2Cl)OCCO3)c(C)c1

>  <target_of_assay>
Polyunsaturated fatty acid lipoxygenase ALOX12 (Homo sapiens) (UniProt P18054)

>  <answer_label>
f

$$$$
>  <compound>
CCn1nc(C)c(CNC(=O)Nc2cc(Cl)ccc2OC)c1C

>  <target_of_assay>
Polyunsaturated fatty acid lipoxygenase ALOX12 (Homo sapiens) (UniProt P18054)

>  <answer_label>
f

$$$$
>  <compound>
CN(CC(=O)NC(C)(C)C)Cc1cccc2cccnc12

>  <target_of_assay>
Polyunsaturated fatty acid lipoxygenase ALOX12 (Homo sapiens) (UniProt P18054)

>  <answer_label>
f

$$$$

Lookup: What was the test verdict on `COc1ccc(-c2cc(NC=O)c3ncc(-c4ccccc4)n3c2)cc1OC` ?
Found: f

Lookup: Tell me the recorded outcome of this test for `Cc1ccccc1-c1cc(C(=O)NCCN2CCNC2=O)c2c(c1)N(C)CCO2` .
Found: f

Lookup: Returns: the outcome recorded for `C/C(=N\NC(=S)NC1CCCCC1)c1ccc(C)o1` in this assay.
Found: t

====

target_of_assay: Polyunsaturated fatty acid lipoxygenase ALOX12 (Homo sapiens) (UniProt P18054)
protocol_description: Primary qHTS assay for inhibitors of human arachidonate 12S-lipoxygenase (ALOX12): Round 2
condition_notes: purified 12hLO, xylenol orange hydroperoxide absorbance; series mostly up to 108 µM
The whole screen tested about 580,000 compounds, of which about 6,100 (1.1%) were called active. Roughly 15% stayed inconclusive and do not appear here. The call rests on the fitted dose curve; in most records, active means well fitted inhibition curve with a large enough effect; inconclusive means small, poorly fitted or top-dose-only effect, or another doubt; inactive means no such curve, though single readings can be large or run the other way. This is one part of a sample in which actives are shown more often than they occur.
Give your call using only these classes: class 1 (active), class 0 (inactive)

Solved cases (6 shown):
>  <compound>
CCc1ccc(C(=O)Nc2ccc(Cl)cc2)cc1S(=O)(=O)N1CCOCC1

>  <answer_label>
class 0

$$$$
>  <compound>
CC1CCCN(CC(=O)Nc2oc3ccccc3c(=O)c2-c2ccccc2)C1 (centres undefined)

>  <answer_label>
class 0

$$$$
>  <compound>
Cc1[nH]n(C)c(=O)c1C(=O)c1c(-c2c(Cl)cccc2Cl)noc1C

>  <answer_label>
class 0

$$$$
>  <compound>
CN(CC(=O)Nc1ccc(N2CCOCC2)cc1)CC(=O)Nc1ccccc1[N+](=O)[O-]

>  <answer_label>
class 0

$$$$
>  <compound>
CCNC(=O)C1CCCN1S(=O)(=O)c1ccc(Br)s1 (centres undefined)

>  <answer_label>
class 0

$$$$
>  <compound>
Cc1ccc(/C=N/Nc2ccccc2C(F)(F)F)cc1

>  <answer_label>
class 0

$$$$

Lookup: How did this test come out for CC(=O)CCc1ccc(OCC(O)CNC(C)(C)CO)cc1 (centres undefined) ?
Found: class 0

Lookup: GET /call?item= `CC1(C)[C@H](O[C@H]2O[C@H](C(=O)O)[C@@H](O)[C@H](O)[C@H]2O[C@@H]2O[C@H](C(=O)O)[C@@H](O)[C@H](O)[C@H]2O)CC[C@@]2(C)[C@H]1CC[C@]1(C)[C@H]2C(=O)C=C2[C@H]3C[C@@](C)(C(=O)O)CC[C@]3(C)CC[C@]21C` returns the recorded outcome of this test.
Found: class 1

Lookup: I'd appreciate the recorded outcome for `O=C(Nc1ccc2c(c1)OCCO2)C(=O)c1c[nH]c2cc(F)ccc12` from this test.
Found: class 0

All values here come from PubChem BioAssay AID1671190.
